molecular target: T1, full-length human Tau (Tau441; 2N4R), recombinant (human, UniProt P10636 1-758); assay: SPR Biacore
T1 construct: made in E. coli, His6-Smt3 tag removed; biotinylated through amines for Octet and phage work; also called r-Tau; recombinant Tau
T1 sequence (P10636 other isoform, or with tags, fused parts or gaps limits assumed): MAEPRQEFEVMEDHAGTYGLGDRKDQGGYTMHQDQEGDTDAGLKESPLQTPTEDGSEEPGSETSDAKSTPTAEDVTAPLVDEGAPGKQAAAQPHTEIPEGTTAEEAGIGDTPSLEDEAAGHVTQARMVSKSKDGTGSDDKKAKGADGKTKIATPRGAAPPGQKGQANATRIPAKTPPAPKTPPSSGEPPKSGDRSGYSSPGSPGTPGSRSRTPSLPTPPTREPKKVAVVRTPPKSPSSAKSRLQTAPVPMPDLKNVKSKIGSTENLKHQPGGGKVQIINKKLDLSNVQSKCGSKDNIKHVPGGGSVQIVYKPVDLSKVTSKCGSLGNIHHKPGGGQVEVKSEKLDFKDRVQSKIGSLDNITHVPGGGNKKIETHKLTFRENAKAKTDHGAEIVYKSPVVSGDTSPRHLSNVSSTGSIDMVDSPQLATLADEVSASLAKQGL
Metric Name: fold weaker binding than chimeric 1C7

[ask] Field request: fold weaker binding than chimeric 1C7 | item: hu1C7.v1 (antibody, V domains shown) VH: EVQLLESGGGLVQPGGSLRLSCAASGFTFSSYGMSWVRQAPGKGLEWVSSISGDGGSYIHYADSVKGRFTISRDNSKNTLYLQMNSLRAEDTAVYYCARLPYWGQGTLVTVSS VL: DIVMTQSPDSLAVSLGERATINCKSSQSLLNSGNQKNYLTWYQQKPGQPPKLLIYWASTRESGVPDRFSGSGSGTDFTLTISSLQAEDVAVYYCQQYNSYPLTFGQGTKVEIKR
[reply] ~2 fold
